# experimental target: PKC α (Homo sapiens, UniProt P17252)
# Construct: purchased CALBIOCHEM
# measurement description: PKC enzyme assay (BIOTRAK Protein kinase C enzyme assay system, 32P-ATP phosphorylation of peptide […])
# Type: biochemical
# reported conditions: Protein Kinase C, Human Recombinant; test substance 1 nM-10 µM; 37°C, 15 minutes; read-out: Inhibition of PKC activity IC50 PKC α
pIC50: −log10 of the molar value. Structures can show the parent of a compound that is named as a salt.
measured endpoint: pIC50

> print(dat)
                                    compound  measured.endpoint  sign  value.reported
 1  NC(=O)C1CCCN1CCCn1cc(C2=C(Nc3ccccc3)C(=O)NC2=O)c2ccccc21 (centres unmarked)              pIC50     =            5.56
 2  O=C1NC(=O)C(c2cn(CCCCCn3ccnc3)c3ccccc23)=C1Nc1ccccc1              pIC50     =            5.56
 3  Cc1c(C2=C(Nc3ccccc3)C(=O)NC2=O)c2ccccc2n1CCCn1ccnc1              pIC50     =            5.63
 4  CN(C)CCCCn1cc(C2=C(Nc3ccccc3)C(=O)NC2=O)c2ccccc21              pIC50     =            6.14
 5  O=C1NC(=O)C(c2cn(CCCCN3CCC(O)CC3)c3ccccc23)=C1Nc1cccc(Cl)c1              pIC50     =            6.01
 6  O=C1NC(=O)C(c2c3n(c4ccccc24)CCC(CO)C3)=C1Nc1ccccc1 (centres unmarked)              pIC50     =            6.07
 7  O=C1NC(=O)C(c2c[nH]c3ccccc23)=C1Nc1cccc(F)c1              pIC50     =            5.14
 8  O=C1NC(=O)C(c2cn(CCCO)c3ccccc23)=C1Nc1ccc(Cl)c(Cl)c1              pIC50     =            5.48
 9  O=C1NC(=O)C(c2cn(CC(O)CO)c3ccccc23)=C1Nc1ccccc1 (centres unmarked)              pIC50     =            5.09
10  CN(C)CCCn1cc(C2=C(Nc3ccccc3)C(=O)NC2=O)c2ccccc21              pIC50     =            6.34
11  O=C1NC(=O)C(c2cn(CCCn3cncn3)c3ccccc23)=C1Nc1ccccc1              pIC50     <            6.00
12  CCN(CCCn1cc(C2=C(Nc3ccccc3)C(=O)NC2=O)c2ccccc21)CCOC              pIC50     =            5.57
13  Cc1nccn1CCCn1cc(C2=C(Nc3ccccc3)C(=O)NC2=O)c2ccccc21              pIC50     =            6.40
14  COc1ccc(NC2=C(c3cn(CCCn4ccnc4)c4ccccc34)C(=O)NC2=O)cc1              pIC50     =            6.33
15  O=C1NC(=O)C(c2cn(CCCCO)c3ccccc23)=C1Nc1ccccc1              pIC50     =            5.74
16  O=C1NC(=O)C(c2cn(CCCN3CCCC3)c3ccccc23)=C1Nc1ccccc1              pIC50     =            6.18
17  N=C(N)SCCCn1cc(C2=C(Nc3ccccc3)C(=O)NC2=O)c2ccccc21 [Example 2-43, hydrobromide]              pIC50     =            7.57
